These data points were gathered from patent US20210155689A1.

# study.system: T1, human LAG-3 on cells (HEK293-hLAG-3 stable cell line) (human, UniProt P18627 23-525)
# T1 sequence: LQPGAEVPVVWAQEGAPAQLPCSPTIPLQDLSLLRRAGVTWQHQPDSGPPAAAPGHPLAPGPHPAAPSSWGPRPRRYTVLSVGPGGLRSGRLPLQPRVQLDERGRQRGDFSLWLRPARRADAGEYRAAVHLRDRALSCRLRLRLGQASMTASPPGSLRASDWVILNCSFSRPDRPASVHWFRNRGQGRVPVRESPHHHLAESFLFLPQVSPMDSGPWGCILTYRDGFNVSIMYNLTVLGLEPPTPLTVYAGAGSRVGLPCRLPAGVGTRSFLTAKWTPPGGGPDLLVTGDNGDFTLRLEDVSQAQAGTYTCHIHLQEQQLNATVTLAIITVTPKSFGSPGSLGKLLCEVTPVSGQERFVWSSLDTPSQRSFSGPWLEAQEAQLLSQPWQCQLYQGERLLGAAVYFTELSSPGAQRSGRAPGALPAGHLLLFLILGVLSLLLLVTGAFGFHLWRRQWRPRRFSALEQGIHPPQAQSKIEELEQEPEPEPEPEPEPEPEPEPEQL
# test.method.notes: FACS, HEK293-hLAG-3, antibody 0.064 nM
Quick reference for Mean fluorescence intensity among some binders
result.type: Mean fluorescence intensity

binder	meas.value
405B8H3-3 humanized antibody (antibody, V domains shown) VH: QVQLVQSGAEVKKPGASVKVSCKASGYTFTDYEMHWVRQAPGQGLEWIGATDPETGNSAYNQKFKGRATMTADKSTSTAYMELSSLRSEDTAVYYCISTGWNDWGQGTTVTVSS VL: DIQMTQSPSSLSASVGDRVTITCKASQDINSYLSWFQQKPGKAPKSLIYRADRLLDGVPSRFSGSGSGTDFTLTISSLQPEDFATYYCLQYDEFPYTFGQGTKLEIK	26
405B8H3-7 humanized antibody (antibody, V domains shown) VH: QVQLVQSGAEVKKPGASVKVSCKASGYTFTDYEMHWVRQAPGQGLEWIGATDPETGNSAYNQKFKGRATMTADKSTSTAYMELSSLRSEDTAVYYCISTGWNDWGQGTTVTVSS VL: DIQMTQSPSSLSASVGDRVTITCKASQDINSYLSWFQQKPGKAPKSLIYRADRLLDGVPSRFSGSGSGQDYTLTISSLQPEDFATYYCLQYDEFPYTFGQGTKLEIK	21
